System: CAKI-1 renal
Assay: NCI-60 one-dose screen, 48 h
Conditions: 10 µM unless noted
This is part of a sample that, as a whole, favours compounds with a hit. Of some 83,000 tested, about 20% had one in any assay. Activity calls are given as the source filed them. Rule for the calls: active = growth percent below 10; inactive = the rest.
Please answer using one outcome listed in True for active, False for inactive

Just curious, what result did O=C(c1ccccc1)C(O)C(Br)(CBr)c1ccccc1 (stereo not given) get here?
False

More entries:
Just curious, what result did "COc1ccc(NC(=O)/C(=C/N2C(=O)/C(=C/c3ccc(OC)c(OC)c3)NC2=S)C(C)=O)cc1" get here?
False

Param item: "COC(=O)c1nc(=S)[nH]c(C(=O)OC)c1C(=O)c1ccc(Cl)c(Cl)c1"
False

Param item: "CN=C(N)N/N=C(\C)c1ccc2c(c1)Cc1ccccc1-2"
True

====

Test system: SW-620 colon
Assay: NCI-60 one-dose screen, 48 h (100 = growth as untreated, 0 = no growth, -100 = all killed)
Conditions: 10 µM unless noted
About 83,000 compounds went through this panel and 20% of them were active in at least one assay; those are over-represented in the sample as a whole.
Let's look at some molecules and their measured growth.
Please give a number only; it is taken to be in %.

Record excerpt, results attached:
I am curious: what growth value has been reported for CCCc1cc(=O)oc2c3c(c4c(c12)OC(C)(C)CC4)OC(C)[C@H](C)[C@@H]3O (stereo partly specified) ?
84.3

Param item: CC(CSc1n[nH]c(=S)s1)c1ccccc1 (stereo unspecified)
112

Param item: "NC(=S)N/N=C/c1ncccc1O"
35

Param item: "COc1ccc2nc3cc(Cl)ccc3c(NCCCCCN3CCCCC3)c2c1"
-27.4

Param item: "CCc1cnc2ccccc2c1/C=C/c1ccc(N(C)C)cc1"
32.1

More entries:
I am curious: what growth value has been reported for "COc1cc(/C=C2\SC(=S)N(/C=C/c3nc4ccccc4[nH]c3=O)C2=O)cc(OC)c1OC" ?
91.2

Param item: "NC(=S)N/N=C\c1nccc2c(N)cccc12"
37.2

====

System: NCI-H522 lung
Assay: NCI-60 one-dose screen, 48 h
Details: 10 µM unless noted
About 83,000 compounds went through this panel and 20% of them were active in at least one assay; those are over-represented in the sample as a whole. Calls of active or inactive are those of the source. The calls were made as follows: active = growth percent below 10; inactive = the rest. *1 amine or outer side, *2 acyl side, *3 side chain or, on linkers, in order; H or OH if unused. Where a SMILES comes first, the peptide text is derived from it. Bridges are numbered along the chain shown (N, C = ends). Roman numbers before positions name the chains, in order. [ ]: non-standard residue; d: D form. Actinocin(1to9) = Cc1c2oc3c(C)ccc(C(=O)[*:2])c3nc-2c(C(=O)[*:1])c(N)c1=O; NMeV = CN[CH](C(=O)O)C(C)C; Sar = CNCC(=O)O
Please answer using one outcome listed in active, inactive

Example results:
Just curious, what result did "Oc1cc(Cl)ccc1Cc1ccc(Cl)cc1O" get here?
inactive

Param item: CCCCCCCCCCCC[N+]1(CCCCCCCCCCCC)CCCC(C)C1 (stereo not drawn)
active

Param item: CCC(C)C1NC(=O)C(NC(=O)c2c3nc4c(C(=O)NC5C(=O)NC(C(C)CC)C(=O)N6CCCC6C(=O)N(C)CC(=O)N(C)C(C(C)C)C(=O)OC5C)ccc(C)c4oc-3c(C)c(=O)c2N)C(C)OC(=O)C(C(C)C)N(C)C(=O)CN(C)C(=O)C2CCCN2C1=O (stereo not drawn) (I: TIP[Sar][NMeV] / II: TIP[Sar][NMeV]; ester I:1-I:C, II:1-II:C; linker I:N-II:N via Actinocin(1to9); configuration not given here)
active

Param item: CCOC(=O)C1(C)CCCC1N (stereo not drawn)
inactive

Param item: "COc1ccc2nc3cc(Cl)ccc3c(NCCCCCN3CCCCC3)c2c1"
active

Param item: "CC(C)Nc1ccc(Nc2ccc(NC(C)C)cc2)cc1"
inactive

More entries:
Just curious, what result did "CCCCCCCCc1cc(Cl)c(O)c(Cl)c1" get here?
inactive

Param item: "O=C1C=CC(=O)N1c1cc(Cl)c(Cl)cc1Cl"
inactive

====

Let's look at some compounds and their measured growth.
Test system: KM12 colon
Assay: NCI-60 one-dose screen, 48 h (100 = growth as untreated, 0 = no growth, -100 = all killed)
Settings: 10 µM unless noted
The panel holds about 83,000 compounds, 20% with a hit somewhere; the sample as a whole holds those more often.
Please give a number only; it is taken to be in %.

Record excerpt, results attached:
I am curious: what growth value has been reported for "CCN(CC)CCNc1ccc([N+](=O)[O-])c2sc3ccccc3c(=O)c12" ?
22.9

Param item: "Cc1ccc(/C=C2\CNC/C(=C\c3ccc(C)cc3)C2=O)cc1"
-78.6

Param item: COc1cc([C@@H]2c3cc4c(cc3[C@H](OC3OC5COC(c6ccccc6)OC5C(O)C3O)[C@H]3COC(=O)[C@H]23)OCO4)cc(OC)c1OC (stereo partly drawn)
42.9

Param item: "C[C@@]1(CO)[C@H](O)CC[C@@]2(C)[C@H]1CC[C@H]1C[C@@H]3C[C@@]12CC[C@@]3(O)COC(=O)CN"
61.8

Param item: "Cc1cc2nc(CC(=O)c3ccncc3)c(=O)[nH]c2cc1C"
103

More entries:
I am curious: what growth value has been reported for "NC(=S)N/N=C/c1ncccc1O" ?
25.9

Param item: "CN(C)c1ccc(/C=C/c2cc[n+](C)c(/C=C/c3ccc(N(C)C)cc3)c2)cc1"
-55.6

Param item: "CCCC[n+]1c(/C=C\c2c(OC)cc(OC)cc2OC)ccc2ccccc21"
-78.6

Param item: "Cc1ccc(Nc2ccc(O)c3c2C(=O)c2c(O)ccc(Nc4ccc(C)cc4)c2C3=O)cc1"
112

Param item: CCN(CC)CCNC(Cc1ccccc1)c1ccc(OCc2ccccc2)cc1 (stereo not drawn)
80.7

====

Let's look at some compounds and their measured growth.
Test system: SK-MEL-2 melanoma
Assay: NCI-60 one-dose screen, 48 h (100 = growth as untreated, 0 = no growth, -100 = all killed)
Settings: 10 µM unless noted
Compounds without any hit were thinned out: in the full panel of roughly 83,000, 20% have a hit.
Please give a number only; it is taken to be in %.

I am curious: what growth value has been reported for "Clc1ccc(Cc2nc3ccccc3s2)cc1" ?
110

Param item: COc1cc([C@@H]2c3cc4c(cc3[C@H](OC3OC5COC(c6ccccc6)OC5C(O)C3O)[C@H]3COC(=O)[C@H]23)OCO4)cc(OC)c1OC (stereo not given in full)
2.6

Param item: "Cc1ccc(/C=C2\CNC/C(=C\c3ccc(C)cc3)C2=O)cc1"
61

Param item: "CCCCCCCCCCCC1=NCCCN1CCCC"
107

Param item: O=C(c1ccccc1)C(Br)C(Br)c1ccccc1 (stereo not given)
75.5

====

Tested on: MDA-MB-435 melanoma
Assay: NCI-60 one-dose screen, 48 h
Details: 10 µM unless noted
This is part of a sample that, as a whole, favours compounds with a hit. Of some 83,000 tested, about 20% had one in any assay. The source made the active and inactive calls. How the source made its calls: active means growth percent below 10; inactive means the rest. Where a SMILES comes first, the peptide text is derived from it. [ ]: non-standard residue; d: D form. ξ: configuration not given here. ξD = NC(CC(=O)O)C(=O)O
Please answer using one outcome listed in true (1) (active), false (0) (inactive)

Just curious, what result did "Cc1cc(I)nc2ccccc12" get here?
false (0)

Param item: CCCCCCCCCCCC(=O)OC(C)C(=O)NCCCC (configuration not stated)
false (0)

Param item: "CC1=CC(=NC(=O)CBr)C=C/C1=N\S(=O)(=O)c1ccccc1"
false (0)

Param item: "c1ccc(-c2cccc(-c3ccccn3)n2)nc1"
false (0)

Param item: NCC(=O)NC(CC(=O)O)C(=O)O (configuration not stated) (H-Gly-[ξD]-OH)
false (0)

Param item: "CCCCCCN(CCCCCC)CCCNc1nccc2ccccc12"
true (1)

Param item: CCCCC(C=O)(C=C=C(C)C)CC (configuration not stated)
false (0)

Param item: "Oc1ccc(Cl)cc1C(c1cc(Cl)ccc1O)C(Cl)(Cl)Cl"
false (0)

Param item: "CC(=O)N1CC(=O)NC1=S"
false (0)

Param item: "S=C1SCN(Cc2cccs2)CN1Cc1cccs1"
false (0)

Field: next compound
Just curious, what result did CN(C)CCSC1=Nc2ccc(Cl)cc2C(c2ccccc2Cl)N(C)C1 (configuration not stated) get here?
false (0)

====

Tested on: SK-OV-3 ovarian
Test: NCI-60 one-dose screen, 48 h
Conditions: 10 µM unless noted
Protocol: Growth inhibition of the SK-OV-3 human tumor cell line is measured as a screen for anti-cancer activity. Cells are grown in 96 well plates and exposed to the test compound for 48 hours. Compounds are tested at a single concentration, which is 10^-5 M for most compounds. The reported endpoint is percent growth (GI% or GIPRCNT), where numbers from 0 - 100% represent growth inhibition, and numbers from -100% - 0 represent cell death. For example, a value of 40 represents 60% growth inhibition. […]
About 83,000 compounds went through this panel and 20% of them were active in at least one assay; those are over-represented in the sample as a whole. The source made the active and inactive calls. Rule for the calls: active = growth percent below 10; inactive = the rest.
Please answer using one outcome listed in active, inactive

Example results:
Just curious, what result did "O=C1C=Cc2ccccc2/C1=C/c1nc(-c2ccccc2)oc1O" get here?
inactive

Param item: "C/C(=N/NC(N)=S)c1ccc(C)cc1"
inactive

Param item: "CCCCOS(=O)(=O)c1ccccc1"
inactive

Param item: CCOc1ccc(C(C[N+](=O)[O-])Sc2ccccc2N)cc1 (stereo unspecified)
inactive

Field: next molecule
Just curious, what result did "O=C1/C(=C\c2ccc([N+](=O)[O-])cc2)CS(=O)(=O)C/C1=C/c1ccc([N+](=O)[O-])cc1" get here?
active

src = PubChem BioAssay (NCI)
